Tested system: glucocorticoid receptor (Homo sapiens)
Construct: endogenous in cells
Sequence (P04150 whole entry): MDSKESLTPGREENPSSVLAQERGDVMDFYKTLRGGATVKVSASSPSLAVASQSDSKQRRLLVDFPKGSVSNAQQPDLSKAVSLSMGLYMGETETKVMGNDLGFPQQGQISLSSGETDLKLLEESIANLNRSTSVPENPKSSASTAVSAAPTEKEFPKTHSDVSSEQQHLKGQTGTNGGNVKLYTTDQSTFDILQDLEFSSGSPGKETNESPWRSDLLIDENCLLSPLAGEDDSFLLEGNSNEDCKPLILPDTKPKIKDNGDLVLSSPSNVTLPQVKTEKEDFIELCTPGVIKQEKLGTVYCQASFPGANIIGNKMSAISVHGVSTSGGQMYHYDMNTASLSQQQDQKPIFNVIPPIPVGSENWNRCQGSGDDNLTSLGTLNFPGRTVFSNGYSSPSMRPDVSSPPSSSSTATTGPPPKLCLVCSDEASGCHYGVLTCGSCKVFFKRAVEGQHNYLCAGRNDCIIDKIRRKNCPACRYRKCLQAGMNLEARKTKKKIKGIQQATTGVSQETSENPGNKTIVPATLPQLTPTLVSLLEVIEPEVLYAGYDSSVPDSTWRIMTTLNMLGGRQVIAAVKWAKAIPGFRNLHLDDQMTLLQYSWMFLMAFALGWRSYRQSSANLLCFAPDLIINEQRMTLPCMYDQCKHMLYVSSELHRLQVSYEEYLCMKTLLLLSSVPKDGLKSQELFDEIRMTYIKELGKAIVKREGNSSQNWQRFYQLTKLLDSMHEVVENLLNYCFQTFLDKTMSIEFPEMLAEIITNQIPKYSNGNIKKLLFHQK
Assay overview: Ligand binding assay (GR BIND)
Parameter measured: Ki (nM)

INSERT INTO measurements (compound, measured_result) VALUES
  ('COCCN(C[C@H]1CCC2=Cc3c(cnn3-c3ccc(F)cc3)C[C@@]21C)S(=O)(=O)c1cn(C)nc1C(F)(F)F [Example 172]', 0.6),
  ('C[C@]12Cc3cnn(-c4ccc(F)cc4)c3C=C1CC[C@@H]2CN(CC#N)S(=O)(=O)c1ccc(F)c(F)c1 [Example 25]', 2.5),
  ('C[C@]12Cc3cnn(-c4ccc(F)cc4)c3C=C1CC[C@@H]2CN(CC1CC1)S(=O)(=O)c1ccccc1C(F)(F)F [Example 4]', 2.2),
  ('C[C@]12Cc3cnn(-c4ccccc4)c3C=C1CC[C@@H]2CN(CCc1ccccn1)S(=O)(=O)Cc1cccnc1 [Example 140]', 4.1),
  ('C[C@]12Cc3cnn(-c4ccc(F)cc4)c3C=C1CC[C@@H]2CN(CC#N)S(=O)(=O)c1ccccc1-c1ccccc1 [Example 53]', 3.7),
  ('C[C@]12Cc3cnn(-c4ccc(F)cc4)c3C=C1CC[C@@H]2CN(CC#N)S(=O)(=O)c1ccccc1Cl [Example 50]', 6.5),
  ('C[C@]12Cc3cnn(-c4ccc(F)cc4)c3C=C1CC[C@@H]2CN(CCO)S(=O)(=O)c1ccccc1F [Example 17]', 2.1);

meta.source: patent US8299048B2
